B1: LINE1-full (parent)
chain: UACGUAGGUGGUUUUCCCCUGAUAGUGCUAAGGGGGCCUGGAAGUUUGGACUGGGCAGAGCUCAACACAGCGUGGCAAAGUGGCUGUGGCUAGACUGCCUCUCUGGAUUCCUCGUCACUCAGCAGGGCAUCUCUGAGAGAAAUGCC

- Variants of: B1
- Assay Explanation: self-cleavage, relative activity (ratio to wild type); higher = more cleavage; in vitro, sequencing; the parent is a self-cleaving ribozyme
Test Readout: self-cleavage
Please state the value as a number alone, without comment.

[
  {
    "Mutation": "U26A U119C",
    "self-cleavage": 0.97
  }
]

Problem: Would you kindly share the measured self-cleavage for C28U C63A ?
Solution: 0.02

Problem: Can you look up the measured self-cleavage of A78G G126C for me?
Solution: 1.99

Problem: // self-cleavage lookup, key: U39A U52C
Solution: 1.72

Problem: Any idea what self-cleavage was measured for G60A A67G ?
Solution: 0.08

Problem: # get_value(readout='self-cleavage', item= A57G A77U )
Solution: 0.58

Problem: Item A142G U143G has what recorded self-cleavage?
Solution: 0.16

Problem: So what's the measured self-cleavage for this one? A50G U115C
Solution: 1.42

Problem: Fill in the blank: the reported self-cleavage of U14G U81A is ____.
Solution: 1.91

Problem: Request the reported self-cleavage associated with C51U A117G
Solution: 1.5

Problem: # query: self-cleavage of entry U47G U143C
Solution: 1.31
